- ASSAY_SUMMARY: Plasma protein binding (free fraction) in human plasma samples
- Type: in vitro ADME
METRIC_NAME: fraction unbound

* Cc1ccc(C(=O)NC2CC2)cc1-n1ncc(C(=O)c2cccc(C#N)c2)c1N | 0.13 to 0.25

====

- ASSAY_SUMMARY: Human plasma PK of the Day 1, 3 and 5 dosing regimen
- Assay type: in vivo
- CONDITION_SUMMARY: human, plasma, oral; based on the first dose
METRIC_NAME: Cmax

• Cc1ccc(C(=O)NC2CC2)cc1-n1ncc(C(=O)c2cccc(C#N)c2)c1N = ~2000 nM
